# protocolDescription: self-splicing fitness, log relative to wild type (ln ratio); higher = more splicing; Tetrahymena group I intron in knt gene, E. coli kanamycin selection, DiMSum; sequences stand for … in CUCUCU…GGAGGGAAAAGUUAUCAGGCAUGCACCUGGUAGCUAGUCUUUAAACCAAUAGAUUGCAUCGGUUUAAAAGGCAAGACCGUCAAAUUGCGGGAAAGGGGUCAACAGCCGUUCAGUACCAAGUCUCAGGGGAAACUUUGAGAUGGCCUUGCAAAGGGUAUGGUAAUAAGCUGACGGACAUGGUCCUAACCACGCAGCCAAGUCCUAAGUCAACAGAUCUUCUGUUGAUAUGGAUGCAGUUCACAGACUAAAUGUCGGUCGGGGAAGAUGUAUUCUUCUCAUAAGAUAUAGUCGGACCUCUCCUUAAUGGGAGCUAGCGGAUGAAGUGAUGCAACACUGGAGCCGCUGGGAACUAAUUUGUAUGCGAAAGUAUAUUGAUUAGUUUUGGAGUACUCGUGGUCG;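 further: selection with 25 µg/mL kanamycin versus none on LB agar overnight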
# assaySetup: 37 °C
Entry flag: Yes if self-splicing fitness (ln) reaches -2; No if it does not.

Examples with answers:
* UUGAAGCAAUAUUACGUUCG | Yes
* ACGGAGCAAUAUUACGUUAA | No
* CGAAAGCAAUAUUACGUUGA | No
* CUCGAGCAAUAUUACGCAAC | Yes

Please tell me: is the sequence AGAUAGCAAUAUUACGCCCU at or over -2 in terms of self-splicing fitness (ln)?
Yes

Please tell me: is the sequence CGUUAGCAAUAUUACGCGCC at or over -2 in terms of self-splicing fitness (ln)?
Yes

Please tell me: is the sequence AGGCAGCAAUAUUACGGCCG at or over -2 in terms of self-splicing fitness (ln)?
Yes

Please tell me: is the sequence ACGGAGCAAUAUUACGUGUG at or over -2 in terms of self-splicing fitness (ln)?
No

Please tell me: is the sequence GCUAAGCAAUAUUACGUCAC at or over -2 in terms of self-splicing fitness (ln)?
No

Please tell me: is the sequence GUGAAGCAAUAUUACGUCUA at or over -2 in terms of self-splicing fitness (ln)?
Yes

* * *

# protocolDescription: self-splicing fitness, log relative to wild type (ln ratio); higher = more splicing; Tetrahymena group I intron in knt gene, E. coli kanamycin selection, DiMSum; sequences stand for … in CUCUCU…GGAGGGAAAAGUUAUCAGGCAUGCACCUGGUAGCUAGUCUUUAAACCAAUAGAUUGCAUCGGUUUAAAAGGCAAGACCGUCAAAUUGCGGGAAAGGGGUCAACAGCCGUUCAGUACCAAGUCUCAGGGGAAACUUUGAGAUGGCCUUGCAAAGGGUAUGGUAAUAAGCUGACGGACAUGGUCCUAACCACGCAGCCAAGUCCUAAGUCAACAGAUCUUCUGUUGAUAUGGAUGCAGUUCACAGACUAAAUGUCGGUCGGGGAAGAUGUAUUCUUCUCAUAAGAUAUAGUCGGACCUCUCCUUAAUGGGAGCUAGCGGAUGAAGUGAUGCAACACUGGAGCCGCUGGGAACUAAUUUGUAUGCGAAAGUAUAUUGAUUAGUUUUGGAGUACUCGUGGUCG
# assaySetup: 37 °C
measurementKind: self-splicing fitness (ln)
Returns: the value as a bare number; no unit string appended.

Please review the entries below; each comes with its answer.
- AGUAAGCAAUAUUACGGCGG: -1.66
- ACCUAGCAAUAUUACGACUA: -1.78
- UAUAAGCAAUAUUACGGUGC: -3.09
- UGAUAGCAAUAUUACGCGUA: -0.96
- UUCUAGCAAUAUUACGUAGG: -0.645

Give me measured self-splicing fitness (ln), please, for this sequence: UCCGAGCAAUAUUACGCACU
-1.99

Give me measured self-splicing fitness (ln), please, for this sequence: UGAUAGCAAUAUUACGACGG
0.124

Give me measured self-splicing fitness (ln), please, for this sequence: AAUGAGCAAUAUUACGGCGC
-1.09

Give me measured self-splicing fitness (ln), please, for this sequence: AGUCAGCAAUAUUACGACGG
-0.096

Give me measured self-splicing fitness (ln), please, for this sequence: UUAGAGCAAUAUUACGGACA
-0.655

Give me measured self-splicing fitness (ln), please, for this sequence: AUGAAGCAAUAUUACGCGCU
0.35

Values compiled from the supplement of paper PMC7877785.
